These data points were gathered from the supplement of paper PMC10567573.

# experiment-summary: protein stability index of a GFP-peptide fusion (GPS, HEK-293T) (PSI 1-6); higher = more stable;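 further: 24-mer peptide tiles fused after GFP, lentivirally expressed, FACS-sorted into six equal bins by GFP/DsRed ratio, decoded by Illumina sequencing, PSI is the read-weighted mean bin number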
# condition-set: treatment: DMSO; c terminus: native
property-label: protein stability index
Just the number, please, no unit attached.

Known results for sequences:
input-sequence | property-label | assay-value
KHWREWGSHAQTSQIQSIRRIQQ [CRYBA1] | protein stability index | 3.25
AAVLQYASLVGQKCSERMLLFRN [ATE1] | protein stability index | 2.38
AFMLFRKRLGSMILAFRPRPNYF [GDAP1] | protein stability index | 2.5
GKSFNRHCNLIRHQKIHTVAELV [ZSCAN9] | protein stability index | 2.08
TEAANAARHVAPEIRELLTQFET [PWWP2B] | protein stability index | 3.49

Continue with the sequence presented below.
Lookup: Requested read-out: protein stability index. Entry: SSSHQKCPQLGGPEASGGLVQWI [PLEKHN1]
Found: 3.17

---

# experiment-summary: protein stability index of a GFP-peptide fusion (GPS, HEK-293T) (PSI 1-6); higher = more stable
# condition-set: treatment: MLN4924 1 uM, 8 h; c terminus: a fixed tail appended
Quick rule: protein stability index of at least 4 means Satisfied, below that means Not satisfied.

Recorded results for 4 sequences are shown here.
input-sequence | class-label
HMTRHLEESEKAMQERVQRLEAAR [LRRC45] | Satisfied
AGAFGYFQQDTKGLVDFRDVALAL [LPCAT4] | Not satisfied
EQIAERKRKMVSWEASSLGLVTAA [KMT2E] | Not satisfied
KNSLFPSPISSISPGLHSFTDHQR [KCNK9] | Not satisfied

Lookup: Could you please find out whether GETRICKIYDSPCLPEAEAMFAIN [RAD51] has protein stability index that meets 4 or exceeds it?
Found: Not satisfied

Lookup: What do you have for ICAIEYLHSKEIVYRDLKPENILL [PRKX] ?
Found: Not satisfied

---

# experiment-summary: protein stability index of a GFP-peptide fusion (GPS, HEK-293T) (PSI 1-6); higher = more stable
# condition-set: treatment: MLN4924 1 uM, 8 h; c terminus: a fixed tail appended
Measured protein stability index by item
Response field accepts a number only; no unit should be typed.

Solved entries:
input-sequence | protein stability index
LCLGGLACLIVMFLPEKKDTGVFA [SLC22A15] | 3.08
PPSYGGSSRYDDYSSSRDGYGGSR [RBMX] | 4.66
STSRAHKLPSRRQPGLLHLQSCGD [FAM189A2] | 3.85
VERSKMIDRNLREDGEKAAREVKL [GNAI1] | 5.09
GAQMEKEWARALETRDWGGAQFEG [ZSWIM9] | 4.22

Lookup: Suppose we examine the sequence QSYFKTIEDFQQKILLTKSENARL [KRT36] ; what protein stability index value has been reported?
Found: 2.77

Lookup: Another: EDYGHWLLCLRAVTHREGAPPLPG [PLEKHN1]
Found: 2.16

---

# experiment-summary: protein stability index of a GFP-peptide fusion (GPS, HEK-293T) (PSI 1-6); higher = more stable
# condition-set: treatment: DMSO; c terminus: a fixed tail appended
property-label: protein stability index

Example entries begin here.
input-sequence | property-label | assay-value
VLASFILDDGEIDEIRWKYHSDTT [IQUB] | protein stability index | 2.5
MKYTSEKFLEICKLSGFMSKLVPA [TPRG1] | protein stability index | 3.05
MTRNDVLTGLQLKLGPALKIYEYH [SAMD13] | protein stability index | 2.24
CLPLTFCIHTGLSQYIAVEAAEGR [FBXO3] | protein stability index | 2.96
PASDLEAALEAAGEGLNVIQQTTR [NANOGP8] | protein stability index | 4.93

Lookup: // protein stability index lookup, key: SKARTKSLLGDDVFSTMAGLEEAD [FBF1]
Found: 4.87

Lookup: What about KSSAQGPIPWFLPESRSLPSSPLR [PPEF2] ?
Found: 3.56

Lookup: Now consider MTTALQGQRLAVCVPAHPPPCAWA [CTBP1-DT] .
Found: 2.43

Lookup: Follow-up item: GVTAIIFCVALSDYDLVLAEDEEM [GNAI1]
Found: 3.86

Lookup: Consider next the sequence NNQYSEGVQREAQRIALRLGNGND [KMT2E] in the same way.
Found: 4.51

Lookup: Now consider EAERKIIEENITSAAPSNDQDGEY [SRPK2] .
Found: 5.66

Lookup: How about QKPEFQDLSVEERSFVEKHRWPSN [RHOBTB3] ?
Found: 4.08

Lookup: Would you mind doing MVEADRPGKLFIGGLNTETNEKAL [RBMX] as well?
Found: 4.75

---

Let's look at some sequences and their measured protein stability index.
# experiment-summary: protein stability index of a GFP-peptide fusion (GPS, HEK-293T) (PSI 1-6); higher = more stable
# condition-set: treatment: MLN4924 1 uM, 8 h; c terminus: a fixed tail appended
Enter a number only.

For orientation, consider the following solved cases.
input-sequence | property-label | assay-value
TCFDQRKRANAAFLIGAYAVIYLK [CDC14A] | protein stability index | 2.13
FPHPLWLRDTYKLWVPQPPPRTIK [PWWP2B] | protein stability index | 2.71
RRERELQHAALGGTATRQNNWPPL [SCAMP3] | protein stability index | 3.82
FHNAVSAYFAGNQKQLEQTLQQFN [ARFIP2] | protein stability index | 2.34
DPEPSGPHLPRVMLPGVLAGVSAE [SCNN1D] | protein stability index | 4.33

Lookup: Field request: protein stability index | item: LTLCKSDLESQVESLREELICLKK [KRT34]
Found: 2.65

Lookup: Ok, now SRSRSRSRSRSRSRSNSRSRSYSP [SRSF1]
Found: 5.56

---

# experiment-summary: protein stability index of a GFP-peptide fusion (GPS, HEK-293T) (PSI 1-6); higher = more stable
# condition-set: treatment: MLN4924 1 uM, 8 h; c terminus: a fixed tail appended
Reported protein stability index values follow for various sequences
Please give only the number in your answer, with no unit.

As a guide, the following entries are already answered.
input-sequence | assay-value
PFSSHTYSQASELPTDAVDCMSRE [FBXO34] | 5.01
ADKYALERLKVMCEEALCSNLSVE [SPOPL] | 3.62
TEDTPKVNADIEKVNQNQAKRCTV [NSDHL] | 5.38

Lookup: I have this sequence here, ENAGGSPSPEPAGRRAALYVHWPY [RSAD1] , and I need its recorded protein stability index.
Found: 3.23

Lookup: Next record, please: MEEMSGESVVSSAVPAAATRTTSF [KCTD10]
Found: 4.82

---

# experiment-summary: protein stability index of a GFP-peptide fusion (GPS, HEK-293T) (PSI 1-6); higher = more stable
# condition-set: treatment: DMSO; c terminus: a fixed tail appended
property-label: protein stability index
I only need the number, thanks.

Here's what some known entries look like.
input-sequence | protein stability index
MATLNRTAAGLMHTFNAHAATDIT [SEPHS2] | 2.95
DVVNYFRTVGFEEQASAFQEQEID [SAMD13] | 3.44
LLEGQDAKMAGIGIREASSGGGGS [KRT15] | 5.09
CGGSGGGGGGGGGGGGCSSGSSYC [LURAP1L] | 3.28
ILWDTLLRLCAWGLASWPLARGIH [POMT2] | 2.82
GGAAGAGWCIFVYNLSPEADESVL [ELAVL3] | 3.22
QPVSLRRRKREVLVEDMVSQEEAQ [ZNF24] | 5.07
PGGGRLLLSTSLDAKDELEERLER [INTS3] | 4.94
PPNADLEQGFQEGVPNASVIMQVP [MFF] | 4.83
ARERAKLQIELGKCKAEHDQLLLN [LMNB1] | 3.47

Lookup: What value of protein stability index has been reported for the following sequence? AAHLALLLLCGTISLRVYRKVLQA [RTN2]
Found: 2.49

Lookup: Also need AGAPPPSGSAVSTAPQQKPIGKIS [SRPK2] , thanks.
Found: 5.01

Lookup: Now consider STVKNEFSLKTFKRKSEVERAVKR [MATN2] and answer again.
Found: 4.17

---

# experiment-summary: protein stability index of a GFP-peptide fusion (GPS, HEK-293T) (PSI 1-6); higher = more stable
# condition-set: treatment: MLN4924 1 uM, 8 h; c terminus: a fixed tail appended
property-label: protein stability index

input-sequence | protein stability index
HCKEKRKTSLLDQLTNTSGTVIGV [NETO1] | 3.34
LLSVDAFAAPSPATTASPAKVDSS [SNAP91] | 4.87
LTHIEAQNKIRACGERLSLGLSRA [PDLIM7] | 2.85
PQSSKSTVVKSLIDNSSEIEDEDQ [FAN1] | 5.6
SAPGACEEPTERGNLEVGEPQSEP [FBXO34] | 5.7
LGNEYPKLHYPELYVLKGGYKEFF [CDC25A] | 2.01
NHEQEVNTLRCQLGDRLNVEVDAA [KRT33B] | 5.16
ELRLQSEAFKKHSLDLLSKERELN [CCDC89] | 3.69

Lookup: Quick one: protein stability index for KWRKVGRSLQRGCRALRDPALDSL [TRADD] ?
Found: 2.54

Lookup: Same question, QQCVDKESSLGSESEEEEEFYDAD [SLC22A15] this time
Found: 5.33

Lookup: Also, LRCLDRDEPSKPTLALEYTYGRRA [DYNC2LI1] please.
Found: 3.41

Lookup: Would you kindly repeat that for LFCDVTLTAQGQQFHCHKAVLASC [KLHL14] ?
Found: 2.71

Lookup: LTTASIIQLGVTPPGYSAWIKEEA [SLC6A17] , same question.
Found: 2.82
